Target: T1, PUF4 RNA-binding domain (Saccharomyces cerevisiae, UniProt P25339 537-888)
T1 sequence: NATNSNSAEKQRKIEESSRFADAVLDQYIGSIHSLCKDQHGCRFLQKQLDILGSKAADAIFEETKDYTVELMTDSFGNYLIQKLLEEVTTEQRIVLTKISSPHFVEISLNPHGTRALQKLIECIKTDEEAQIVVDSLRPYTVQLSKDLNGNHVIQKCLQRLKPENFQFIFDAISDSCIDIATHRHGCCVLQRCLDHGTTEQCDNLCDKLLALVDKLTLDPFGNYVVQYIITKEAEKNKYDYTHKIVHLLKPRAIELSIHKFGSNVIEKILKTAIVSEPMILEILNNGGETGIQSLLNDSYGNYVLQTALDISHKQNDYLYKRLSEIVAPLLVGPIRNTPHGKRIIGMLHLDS
Assay: Mg; RNA-MaP; 20 mM Na-HEPES pH 7.4, 30 mM KOAc, 0.75 mM MgCl2, 0.1% Tween-20, 5% glycerol, 0.1 mg/mL BSA, 2 mM DTT; 25 C; 0.0125-409.6 nM protein
Details: tags: N-His6-TEV cleaved; C-SNAP kept, Cy3B-labelled; label: tethered on chip by stalled RNA polymerase
pKd: −log10 of the molar value.
Decide using pKd: a value greater than or equal to 8 is MET, a smaller one is NOT MET.

Examples with answers:
| binder | class |
| --- | --- |
| Id_ii_S4_P3E.4_K3.3_C3.2_[C-2G]_H3.3_A3.1_F3.1_T3.2_[T9A]_[A10T] (ssRNA) RNA: UUUGACAACUGAUCGUUCUUUCUGUACACUAUAAUUUCUUUCUCGAUCAGUUGUCUUU | MET |
| Id_ii_S4_P4E.4_K4.3_C4.2_[T-1G]_H4.3_A4.1_F4.1_T4.2_[G10T] (ssRNA) RNA: UUUGACAACUGAUCGUUCUUUCUCGACACUAUUAUUUUCUUUCUCGAUCAGUUGUCUUU | NOT MET |
| UCUCUUGGUACAUAUCUCUU (ssRNA) [Ib_S1_P3E.1_K3.1_C3.1_H3.1_[T1G]_A3.1_[T5C]_F3.1_T3.1] | NOT MET |
| Id_ii_S2_P5E.4_K5.3_C5.2_[T-1G]_H5.3_A5.1_F5.1_T5.2_[T11C] (ssRNA) RNA: UUUGAUUAAUAUGAUAUCGUUCUUUCUCGACACUUAUUACAUUCUUUCUCGAUAUCAUAUUAAUCUUU | NOT MET |
| UCUCUUUGUAAUGUGUCUCUU (ssRNA) [Ic_S1_P4E.1_K4.1_C4.1_H4.1_A4.1_[T5A]_[A6T]_[T7G]_F4.1_[A9G]_T4.1] | NOT MET |
| Ic_S4_P4E.1_K4.1_C4.1_H4.1_A4.1_[A6T]_F4.1_[T8C]_[A9C]_T4.1 (ssRNA) RNA: UUUGACAACUGAUCGUUCUUUCUUGUAUUUCCUUCUUUCUCGAUCAGUUGUCUUU | NOT MET |

*Q* Check if pKd >= 8 (inclusive). Item: Id_ii_S2_P4E.2_K4.1_C4.2_[C-2G]_[T-1C]_H4.1_A4.1_F4.1_T4.2_[G10C]_[T11C] (ssRNA) RNA: UUUGAUUAAUAUGAUAUCGUUCUUUCUGCUGUAUAUUACCUUCUUUCUCGAUAUCAUAUUAAUCUUU
*A* MET

*Q* Query Ic_S2_P5E.1_K5.1_C5.1_H5.1_A5.1_[T5A]_[A7G]_F5.1_[T8G]_T5.1 (ssRNA) RNA: UUUGAUUAAUAUGAUAUCGUUCUUUCUUGUAAUGGUAUUCUUUCUCGAUAUCAUAUUAAUCUUU next
*A* NOT MET

*Q* Query Ia_S2_P4E.1_K4.1_C4.1_H4.1_[A4T]_A4.1_F4.1_T4.1 (ssRNA) RNA: UUUGAUUAAUAUGAUAUCGUUCUUUCUUGUUUAUUAUUCUUUCUCGAUAUCAUAUUAAUCUUU next
*A* MET

*Q* Query Id_ii_S2_P4E.2_K4.1_C4.2_[C-2A]_[T-1C]_H4.1_A4.1_F4.1_T4.2_[G10T]_[T11C] (ssRNA) RNA: UUUGAUUAAUAUGAUAUCGUUCUUUCUACUGUAUAUUAUCUUCUUUCUCGAUAUCAUAUUAAUCUUU next
*A* MET

Where do the numbers come from? From paper PMC9352680.
